The reported measurements were obtained from paper PMC10397247.

Target: T1, P2-AA-12HAA-V
T1 chain: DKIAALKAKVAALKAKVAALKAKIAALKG
Assay: two-hybrid library CCmax;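 further: natural log of median RNA to DNA barcode read ratio; higher means stronger binding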
Conditions: mean of both orientations
Attribute Measured: interaction score
Kindly provide the number alone.

>>> obs_value("DEIAALEAESAALEAESAALEAEIAALEG [P1-AA-12HAA-S]")
1.8
>>> obs_value("DEIAALEAEYAALEAEYAALEAEIAALEG [P1-AA-12HAA-Y]")
1.72
>>> obs_value("DEIAALEAETAALEAETAALEAEIAALEG [P1-AA-12HAA-T]")
1.98
>>> obs_value("DEIAALEAERAALEAERAALEAEIAALEG [P1-AA-12HAA-R]")
1.37
>>> obs_value("DEIAALEAEIAALEAEIAALEAEIAALEG [P1-AA-12HAA-I]")
1.79

# context switch: different binder, same interaction score
Req: Fill in the blank: the reported interaction score of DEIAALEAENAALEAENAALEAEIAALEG [P1-AA] is ____.
Resp: 1.26
